Tested on: ICR mice
Assay: Effect on in vivo bleeding time in mice (tail cut)
Settings: 100 mg/kg i.g. once daily for 4 days

Compound	Unit Name	Bleeding time prolongation (%)
Cc1cccc(C)c1OC(=O)CCNC(=O)CCNc1cc(=O)n(C)c(=O)n1Cc1cc(F)ccc1C#N	%	−38.00
Cn1c(NCCC(=O)NCCC(=O)OC2CCCCC2)cc(=O)n(C)c1=O	%	4.80
CC(C)OC(=O)CCNC(=O)CCNc1cc(=O)n(C)c(=O)n1Cc1cccnc1	%	23.50
CCOC(=O)CCNC(=O)CCNc1cc(=O)n(C)c(=O)n1Cc1cc(F)ccc1C#N	%	13.30
CCOC(=O)CCNC(=O)CCNc1cc(=O)[nH]c(=N)[nH]1	%	16.90
Cn1c(NCCC(=O)NCCC(=O)Oc2ccccc2)cc(=O)n(C)c1=O	%	15.10
CC1CCC(C(C)C)C(OC(=O)CCNC(=O)CCNc2cc(=O)n(C)c(=O)n2Cc2cccnc2)C1 (stereo not shown)	%	−9.00
CC(C)OC(=O)CCNC(=O)CCNc1cc(=O)n(Cc2cccnc2)c(=O)n1Cc1cccnc1	%	−2.10
CCOC(=O)CCCCCNC(=O)CCCCCNc1cc(=O)n(C)c(=O)n1C	%	−19.20
CC(C)OC(=O)CCNC(=O)CCN(C)c1cc(=O)n(C)c(=O)n1Cc1cc(F)ccc1C#N	%	18.60
CC(C)OC(=O)CCNC(=O)CCNc1cc(=O)n(C)c(=O)n1C	%	6.50
Cn1c(NCCCCCC(=O)NCCCCCC(=O)O)cc(=O)n(C)c1=O	%	20.60
CCOC(=O)CCNC(=O)CCNc1cc(=O)n(Cc2cccnc2)c(=O)n1Cc1cccnc1	%	−3.10

These data points were gathered from patent US20250066310A1.
